Tested on: SK-MEL-28
ASSAY PROTOCOL: NCI tumour cell line growth inhibition, 48 h
Active and inactive are the calls of the source. No stated cut-off is given here; in the data, active = GI50 up to about 1.1 µM and inactive = higher.
GI50 overview

Previously resolved entries follow.
CNC(=O)OC(C)CN1c2ccccc2Sc2ccccc21 (stereo not drawn) | > 100 µM (inactive)
CC(=O)c1[nH]c(NCc2ccccc2)c(C(=S)Nc2ccccc2)c1N | 24.2 µM (inactive)
O=C(O)c1ccccc1CC(Cc1ccccc1)C(=O)O (stereo not drawn) | > 100 µM (inactive)

What value of GI50 has been reported for the following compound? CC1=C(C#N)C23C(=O)c4ccccc4C(=O)C2=C(O)C=CC3(O)N1 (stereo not drawn) 2.51 µM (inactive)

What about this compound? "CO[C@H]1C[C@H](O[C@H]2CC[C@]3(C=O)[C@H]4CC[C@]5(C)[C@@H](C6=CC(=O)OC6)CC[C@]5(O)[C@@H]4CC[C@]3(O)C2)O[C@H](C)[C@H]1O" 0.845 µM (active)

What about this compound? "Cc1ccc(-c2c(N)nc(NC#N)nc2CCC(=O)Nc2ccccc2[N+](=O)[O-])cc1" > 100 µM (inactive)

====

Test system: CAKI-1
ASSAY PROTOCOL: NCI tumour cell line growth inhibition, 48 h
The source made the active and inactive calls. No stated cut-off is given here; in the data, active = GI50 up to about 1.1 µM and inactive = higher.
// classify into active, inactive

Known results for molecules:
N#Cc1cc(-c2nc3c(F)cccc3s2)ccc1N | inactive
CC(=O)c1[nH]c(NCc2ccccc2)c(C(=S)Nc2ccccc2)c1N | inactive
Nc1ccc(Oc2ccc(C34CC5CC(C3)CC(c3ccc(Oc6ccc(N)cc6C(F)(F)F)cc3)(C5)C4)cc2)c(C(F)(F)F)c1 | inactive
COC(=O)C1(O)CC(=O)CCC1c1ccc(OC)cc1 (stereo unspecified) | inactive
COC(=O)[C@@]12CC(C(C)C)[C@H]3CC(C(=O)C=C1OC)[C@H]32 (stereo partly specified) | inactive
CC(C)c1cc(C(C)C)c(S(=O)(=O)N/N=C2\CC3CCC2(C)C3(C)C)c(C(C)C)c1 (stereo unspecified) | inactive
CN(C)c1ccc(/C=N\NC(=O)CSCC(=O)N/N=C/c2ccc(N(C)C)cc2)cc1 | inactive
COC(=O)C(Cc1ccccc1)NS(=O)(=O)c1ccc(-c2c3nc(c(-c4ccc(S(=O)(=O)NC(Cc5ccccc5)C(=O)OC)cc4)c4ccc([nH]4)c(-c4ccc(S(=O)(=O)NC(Cc5ccccc5)C(=O)OC)cc4)c4nc(c(-c5ccc(S(=O)(=O)NC(Cc6ccccc6)C(=O)OC)cc5)c5ccc2[nH]5)C=C4)C=C3)cc1 (stereo unspecified) | inactive
CC1=NN(c2cccc(S(=O)(=O)O)c2)C2(C1)SCC(=O)N2c1nc2ccccc2s1 (stereo unspecified) | inactive
COc1cc(C)c(C2NC(=O)c3ccccc3N2)cc1C (stereo unspecified) | active

Check the results log: what was the call for "O=C(O)CN(c1ccccc1)S(=O)(=O)c1ccc(Cl)cc1" ? inactive

====

# collection of GI50 values tested on HCT-15
# number only, unit µM dropped from output

What value of GI50 has been reported for the following molecule? "COc1ccc(/C=C/C(=O)c2ccccc2)cc1OC" 7.03

What about this molecule? COc1nc2ccc(Cl)c(C(O)c3ccccc3)c2nc1OC (configuration not stated) 20.6

====

System: SNB-75
ASSAY PROTOCOL: NCI tumour cell line growth inhibition, 48 h
Calls of active or inactive are those of the source. Rule as the data show it: active = GI50 up to about 1.1 µM and inactive = higher.
// classify into Yes (active), No (inactive)

CCCCCCCCCN1CCC(=O)C(C(=O)OC)C1 (stereo not given) | No
COC(=O)/C(=C\c1cn(C(C)=O)c2ccccc12)P(=O)(OC)OC | No
CO/N=C(\C(=O)Nc1cncs1)c1csc(NC(c2ccccc2)(c2ccccc2)c2ccccc2)n1 | No
Cc1c(/C=N/NC(=S)Nc2ccccc2Cl)c(=O)n(-c2ccccc2)n1C | No

Consider the additional compound presented here.
Check the results log: what was the call for "CCN(CC)CCCNc1nncc2c(C)c3[nH]c4ccc(OC)cc4c3cc12" ? Yes
